compounds and their reported NADPH fluorescence slope
assay.target: Voltage-gated potassium channel subunit beta-2 (Rattus norvegicus) (UniProt P62483)
Sequence (P62483 whole entry, looked up): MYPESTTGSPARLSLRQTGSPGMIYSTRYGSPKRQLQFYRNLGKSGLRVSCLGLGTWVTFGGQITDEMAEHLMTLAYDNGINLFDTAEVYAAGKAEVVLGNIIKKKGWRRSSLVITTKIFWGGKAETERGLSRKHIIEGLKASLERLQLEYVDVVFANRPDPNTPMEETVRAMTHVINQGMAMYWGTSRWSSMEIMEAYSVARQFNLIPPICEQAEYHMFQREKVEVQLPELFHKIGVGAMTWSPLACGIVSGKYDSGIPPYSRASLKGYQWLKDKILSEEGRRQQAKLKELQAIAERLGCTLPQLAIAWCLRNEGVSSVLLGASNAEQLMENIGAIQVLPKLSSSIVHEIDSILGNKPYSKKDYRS
measurement.notes: KvBeta positive modulators, primary screen, biochemical, NADPH fluorescence (AID 623);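 note: fluorescence intensity change per second fitted from 20 to 320 s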
protocol.conditions: Recombinant KvBeta, NADPH fluorescence decrease slope, 10 min; at 10 µM; stronger effect = lower value
readout.name: NADPH fluorescence slope

compound	meas.value
S=C(N=Nc1ccccc1)NNc1ccccc1	-4.2e-05
N#CC1=C2SCC(O)(c3ccccc3)N2C(=O)CC1c1ccccc1 (stereo unspecified)	-0.00022
COc1ccc(-c2ncncc2-c2csc(C)n2)c(O)c1	-3.3e-05
CNCCC=C1c2ccccc2CCc2ccccc21	-4.9e-05
CCOC(=O)C1CCCN(c2nc3ccccc3nc2C(C#N)C(=O)OCCOC)C1 (stereo unspecified)	-4.8e-05
CCC1(C)Cc2c(sc3[nH]c(=O)[nH]c(=O)c23)CS1 (stereo unspecified)	-4.7e-05
CCN(CC)C(=O)CSC1=C(C#N)C(c2cccs2)C=C(C)N1 (stereo unspecified)	-4.9e-05
Cn1c2c(c(=O)n(C)c1=O)C(NC(=O)C(C)(C)C)(C(F)(F)F)C(=O)N2 (stereo unspecified)	-6.1e-05
CCCOc1ccc(-c2nnc(N)s2)cc1	-6.2e-05
COC(=O)C1=C(C)N=C2SC(C)C(=O)N2C1/C=C/c1ccccc1OC (stereo unspecified)	-0.00012
CCN(CC)CCN1C(=O)C(=O)/C(=C(/O)c2ccc(Cl)cc2)C1c1ccncc1 (stereo unspecified)	-2e-05

----------
measurement.notes: inhibitors of E-selectin induction by TNFa, primary screen, imaging, HUVEC, immunofluorescence, MLSMR starter and 10KST1 sets (AID 487);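 note: signal is fraction of cell area covered by stained E-selectin grains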
protocol.conditions: HUVEC TNFalpha-induced E-selectin immunofluorescence imaging, at 2 µM; stronger effect = higher value
readout.name: inhibition (%)

compound	measurement.unit	meas.value
O=C(Cc1cscn1)c1ccc(O)cc1O	%	-143
CC/C(C)=C1\SC(N2CCN(C(C)=O)CC2)=NC1=O	%	-322
CCOc1nnnc2c1sc1nc(N3CCOCC3)c3c(c12)CC(C)(C)OC3	%	-78.7
O=C1C2ON(c3ccccc3)C(c3cccnc3)C2C(=O)N1c1ccccc1 (centres undefined)	%	-28.2
NS(=O)(=O)c1ccc(-c2ccc(C=NC3CCS(=O)(=O)C3)o2)cc1 (centres undefined)	%	-53.9
CCC(NC(C)C)C(O)c1ccc(O)c(O)c1 (centres undefined)	%	-51.9
O=c1[nH]cnc2cc(-c3ccccc3)sc12	%	-20.4
O=C1OC2CCC1(c1ccccc1)C2 (centres undefined)	%	40.2
COc1ccc(OC)c(NC(=O)CSC2=C(C#N)C(c3ccco3)C3=C(CCCC3=O)N2)c1 (centres undefined)	%	-37.1
CCN(CC)CCOC(=O)C(c1ccccc1)c1ccccc1	%	-7.9
COc1cccc(-c2nc(NCCN3CCOCC3)c3ccccc3n2)c1O	%	21.8
CCN(CC)CCNC(=O)c1cc(S(C)(=O)=O)ccc1OC	%	-40
C#CCSC1=C(C#N)C(c2cccs2)C(C(=O)OCC)=C(C)N1 (centres undefined)	%	-59.4
CCN(CC)c1ccc(-c2nn3c(-c4cccnc4)nnc3s2)cc1	%	-247
Nc1nonc1-c1noc(-c2ccccc2)n1	%	-26.8
Cc1ccc(OCc2nnc(NC(=O)c3ccco3)s2)c(C)c1	%	15.6
COc1ccc(C2C=C(c3ccc(Cl)cc3)Nc3nc(NC(C)=O)nn32)cc1 (centres undefined)	%	-27.6
CC1CCc2cc(F)cc3c(O)c(C(=O)NCC4CCCO4)c(=O)n1c23 (centres undefined)	%	-28.6
CCCc1nc(NC2CCCCC2)c(C#N)c2c1COC(C)(C)C2	%	-55.9
COCc1cc(=O)[nH]c(Nc2nc3ccc(C)cc3o2)n1	%	-52.2
CC(C)OC(=O)C(C#N)c1nc2ccccc2nc1N1CCCC1 (centres undefined)	%	-48.2
O=C(NC1(C(F)(F)F)C(=O)Nc2c1c(=O)[nH]c(=O)n2-c1ccccc1)c1cccnc1 (centres undefined)	%	-47.1
CCSc1nc(N)c2c3c(sc2n1)CCC3	%	-20.6
CC1C[C@@]2(NC(=O)NC2=O)C(C)CN1C (some centres undefined)	%	-91.9
